Source: PubChem BioAssay (NCI)

System: K-562 leukemia
experimentDescription: NCI tumour cell line growth inhibition, 48 h
metricName: TGI

Solved cases below.
[[record]]
molecule = "CC(=O)N1C(c2[nH]c3ccccc3c2Cc2ccccc2)CCN1c1ccccc1 (centres undefined)"
measuredtarget = "K-562 leukemia"
observedresult = "> 10 µM"

[[record]]
molecule = "CCOC(=O)c1c(C)n([O-])c2cc(F)c(F)cc2[n+]1=O"
measuredtarget = "K-562 leukemia"
observedresult = "> 20.4 µM"

[[record]]
molecule = "COc1ccc(C[C@H]2COC(=O)[C@@H]2Cc2ccc(Br)cc2)cc1OC"
measuredtarget = "K-562 leukemia"
observedresult = "> 72 µM"

[[record]]
molecule = "CCN1C(=O)/C(=c2\\sc3n(c2=O)C2C(NN=3)N(CC)C(=O)N2CC)c2ccccc21 (centres undefined)"
measuredtarget = "K-562 leukemia"
observedresult = "> 100 µM"

[[record]]
molecule = "C/C=C1\\Oc2ccc(OC)cc2S1(=O)=O"
measuredtarget = "K-562 leukemia"
observedresult = "> 100 µM"

[[record]]
molecule = "Cc1ccc(S(=O)(=O)c2ccc(C)cc2[N+](=O)[O-])c([N+](=O)[O-])c1"
measuredtarget = "K-562 leukemia"
observedresult = "> 100 µM"


Can you look up TGI on K-562 leukemia for Nc1c(C(=O)Nc2cccc(Cl)c2)sc2nc3c(cc12)C(O)CCC3 (centres undefined) ?
22.9 µM

Find TGI (K-562 leukemia) for the entry O=C1NC(c2ccc3ccccc3c2)Nc2ccccc21 (centres undefined)
7.04 µM

Request: TGI, test system K-562 leukemia, entry `CCOC(=O)/C=C(/C(=O)OCC)n1ccc(=O)n(Cc2cn(CCCCOC(C)=O)nn2)c1=O`
> 100 µM

---

Test system: DU-145 prostate
experimentDescription: NCI tumour cell line growth inhibition, 48 h
metricName: GI50

Example results:
[[record]]
molecule = "CCc1ccc(Oc2c(-c3ccc(OCCc4cccc(C(F)(F)F)c4)cc3O)n[nH]c2C(F)(F)F)cc1"
observedresult = "2.62 µM"

[[record]]
molecule = "Cn1cc(-c2csc(-c3ccccc3)n2)c2cccnc21"
observedresult = "15 µM"

[[record]]
molecule = "CC(C)[C@@]12C[C@@H](OC(=O)COC(=O)c3ccccc3)[C@@](C)(O1)[C@@H]1CC[C@@H](C)[C@H]1[C@@H]2OC(=O)/C=C/c1ccccc1"
observedresult = "> 100 µM"

[[record]]
molecule = "C=C(C(=O)c1ccccc1)C(NC(C)(C)C)c1ccccc1 (stereo unspecified)"
observedresult = "3.11 µM"

[[record]]
molecule = "CCN1C(=O)/C(=c2\\sc3n(c2=O)C2C(NN=3)N(CC)C(=O)N2CC)c2ccccc21 (stereo unspecified)"
observedresult = "0.582 µM"


Item `COc1ccc(-c2nc3sccn3c2-c2ccnc(NCCNS(=O)(=O)c3ccc(C(F)(F)F)cc3)n2)cc1` has what recorded GI50?
1.53 µM

Return reported GI50; argument: `O=C1/C(=C/c2ccc(Cl)cc2)CN(Cc2cn(CCCNc3ccnc4cc(Cl)ccc34)nn2)C/C1=C\c1ccc(Cl)cc1`
1.16 µM

Which GI50 value belongs to `O=S(=O)(NCCNc1nccc(-c2c(-c3ccc(F)cc3)nc3sccn23)n1)c1ccc(O)cc1` ?
3.17 µM

GI50 lookup needed for `COc1ccc2nc3cc([N+](=O)[O-])ccc3c(NCCO)c2c1` , thanks.
3.62 µM

Record request: GI50 value, item N#CC1=C(N)N=C(N2CCOCC2)C(C#N)C12Nc1ccccc1S2 (stereo unspecified)
19.2 µM

Fill blank: measured GI50 of the molecule `O=C(/C=C(/C=C/c1cccc2[nH]ccc12)OB(F)F)/C=C/c1cccc2[nH]ccc12` is ____.
0.753 µM
